The entries below come with measured pIC50 values attached.
# Assay System: 3-oxo-5-alpha-steroid 4-dehydrogenase 1 (Homo sapiens)
# Sequence (P18405 whole entry): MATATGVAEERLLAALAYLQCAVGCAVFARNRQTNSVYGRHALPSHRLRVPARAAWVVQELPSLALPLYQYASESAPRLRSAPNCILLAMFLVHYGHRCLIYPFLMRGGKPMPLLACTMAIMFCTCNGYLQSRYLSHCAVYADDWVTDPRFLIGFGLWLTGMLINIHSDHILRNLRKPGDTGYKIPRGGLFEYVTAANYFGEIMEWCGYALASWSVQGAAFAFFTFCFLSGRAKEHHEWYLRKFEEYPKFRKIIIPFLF
# Assay Overview: In vitro inhibition of human steroid 5-alpha-reductase type I in Du-145 cells
pIC50: −log10 of the molar value.
Parameter: pIC50

Molecule	Measurement
COc1ccc(N(C(=O)c2ccccc2)[C@H]2CCC3C4CC[C@H]5N(C)C(=O)CC[C@]5(C)C4CC[C@@]32C)cc1 (stereo partly drawn)	8.68
CN1C(=O)CC[C@]2(C)C3CC[C@@]4(C)C(CC[C@@H]4N(C=O)CCC(C)(C)C)C3CC[C@@H]12 (stereo partly drawn)	8.63
CN1C(=O)CC[C@]2(C)C3CC[C@@]4(C)C(CC[C@@H]4N(C(=O)c4ccccc4)c4ccccc4)C3CC[C@@H]12 (stereo partly drawn)	8.53

Entry source: ChEMBL document CHEMBL1128284
